The reported numbers originate from ChEMBL document CHEMBL2218924.

Field: residual activity. Provide a value for each of the compounds that follow.
# STUDY_SYSTEM: Serine/threonine-protein kinase BRSK2 (Homo sapiens) (UniProt Q8IWQ3)
# SETUP_CONDITIONS: at 1 µM
Report the figure in % without appending any unit label.

Lab book: residual activity of C[C@@H](N)[C@H]1CC[C@H](C(=O)Nc2ccncc2)CC1 noted as 123

Lab book: residual activity of Oc1c2ccccc2c2c3c(cccc13)N=N2 noted as 64

Lab book: residual activity of N#CCCc1ccc2c(c1)-c1[nH]c3ccc([N+](=O)[O-])cc3c1CC(=O)N2 noted as 39

Lab book: residual activity of Oc1ccc(-c2nc(-c3ccc(F)cc3)c(-c3ccncc3)[nH]2)cc1 noted as 124

Lab book: residual activity of Nc1cccc(-c2cc3c(Oc4cccc(O)c4)ncnc3[nH]2)c1 noted as 75

====

# STUDY_SYSTEM: Serine/threonine-protein kinase pim-2 (Homo sapiens) (UniProt Q9P1W9)
# Sequence (Q9P1W9 whole entry, looked up): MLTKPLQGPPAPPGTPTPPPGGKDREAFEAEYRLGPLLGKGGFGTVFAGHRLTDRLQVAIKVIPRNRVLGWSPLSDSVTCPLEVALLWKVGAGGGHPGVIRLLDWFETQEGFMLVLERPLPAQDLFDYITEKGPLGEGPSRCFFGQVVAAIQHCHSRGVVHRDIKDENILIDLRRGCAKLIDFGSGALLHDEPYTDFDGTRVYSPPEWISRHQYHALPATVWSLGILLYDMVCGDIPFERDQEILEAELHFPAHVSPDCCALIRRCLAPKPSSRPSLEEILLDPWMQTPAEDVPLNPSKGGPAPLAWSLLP
# SETUP_CONDITIONS: at 10 µM
MEASUREMENT_TYPE: residual activity (%)
Report the figure in % without appending any unit label.

Lab book: residual activity of Oc1c2ccccc2c2c3c(cccc13)N=N2 noted as 21

Lab book: residual activity of Nc1cccc(-c2cc3c(Oc4cccc(O)c4)ncnc3[nH]2)c1 noted as 84

Lab book: residual activity of Cn1cnc2cc3c(Nc4cccc(Br)c4)ncnc3cc21 noted as 97

Lab book: residual activity of O=C1NC(=O)/C(=C\c2ccc3nccnc3c2)S1 noted as 22

Lab book: residual activity of O=c1c2ccccc2[nH]c(=S)n1CCN1CCC(=C(c2ccc(F)cc2)c2ccc(F)cc2)CC1 noted as 133

Lab book: residual activity of CC[n+]1c(/C=C/N(C)c2ccccc2)n(-c2ccccc2)c2ccc(-c3nc4ccccc4s3)cc21 noted as 136

Lab book: residual activity of Cc1nc2cc3nc(-c4cccs4)cnc3cc2n1C noted as 121

Lab book: residual activity of O=c1cc(-c2cccc3c2Sc2ccccc2S3)oc(N2CCOCC2)c1 noted as 29

Lab book: residual activity of Cn1cc(/C=C2\C(=O)Nc3ccc(S(N)(=O)=O)cc32)c2ccccc21 noted as 97

Lab book: residual activity of Nc1n[nH]c2nnc(-c3c(-c4ccccc4)nn4ccccc34)cc12 noted as 74

Lab book: residual activity of CO[C@H]1[C@@H](OC)C[C@H](C)[C@@H](OC)C2=CC(=O)C=C(NC(=O)/C(C)=C/C=C/[C@H](OC)[C@@H](OC(N)=O)/C(C)=C/[C@@H]1C)C2=O noted as 129

Lab book: residual activity of N#CC(C#N)=C(N)/C(C#N)=C/c1ccc(O)cc1 noted as 118

Lab book: residual activity of O=[N+]([O-])c1ccc(-c2nc(-c3ccc(F)cc3)c(-c3ccncc3)[nH]2)cc1 noted as 139

====

Field: residual activity. Provide a value for each of the molecules that follow.
# STUDY_SYSTEM: LIM domain kinase 1 (Homo sapiens) (UniProt P53667)
# Sequence (P53667 whole entry, looked up, the tested form may be a part): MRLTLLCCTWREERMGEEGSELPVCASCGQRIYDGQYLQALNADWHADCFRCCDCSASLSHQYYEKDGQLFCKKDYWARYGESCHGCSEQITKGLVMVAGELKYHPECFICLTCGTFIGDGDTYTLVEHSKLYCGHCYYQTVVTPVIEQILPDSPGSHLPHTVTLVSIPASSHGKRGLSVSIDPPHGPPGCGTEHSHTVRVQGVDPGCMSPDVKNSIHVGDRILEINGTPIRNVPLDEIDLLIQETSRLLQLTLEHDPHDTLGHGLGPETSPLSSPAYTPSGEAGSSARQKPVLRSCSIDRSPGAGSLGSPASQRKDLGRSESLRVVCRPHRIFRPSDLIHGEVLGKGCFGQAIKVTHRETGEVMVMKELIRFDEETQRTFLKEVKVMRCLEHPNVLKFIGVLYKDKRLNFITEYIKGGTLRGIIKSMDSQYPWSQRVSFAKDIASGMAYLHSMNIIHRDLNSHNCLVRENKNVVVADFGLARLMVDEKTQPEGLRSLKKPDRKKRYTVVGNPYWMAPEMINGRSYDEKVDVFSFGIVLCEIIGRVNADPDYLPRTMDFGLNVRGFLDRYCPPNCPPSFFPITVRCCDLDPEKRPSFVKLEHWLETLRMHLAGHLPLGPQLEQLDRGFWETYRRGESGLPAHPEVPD
# SETUP_CONDITIONS: at 10 µM
Report the figure in % without appending any unit label.

Lab book: residual activity of COc1ccc(S(=O)(=O)N(CCO)c2ccccc2CN(C)C/C=C/c2ccc(Cl)cc2)cc1 noted as 83

Lab book: residual activity of O=C(Nc1cccc(Nc2cc(Nc3cccc(C(F)(F)F)c3)ncn2)c1)C1CC1 noted as 31

Lab book: residual activity of Cc1cncc2cccc(S(=O)(=O)N3CCCN(C(=O)CN)C[C@H]3C)c12 noted as 51

Lab book: residual activity of O=C(O)c1ccc2c3c1cccc3c(=O)n1c3ccccc3nc21 noted as 89

Lab book: residual activity of CCN(CC)CCCCN1c2ccccc2Oc2ccc(Cl)cc21 noted as 98

Lab book: residual activity of CCN(CC)C(=O)c1ccc(Nc2nc(OCC3CCCCC3)c3nc[nH]c3n2)cc1 noted as 10

Lab book: residual activity of Cc1ccc(NC2=CC(=O)c3sc(C)nc3C2=O)cc1 noted as 82

Lab book: residual activity of Nc1ccc2ncnc(NCCc3ccc(Oc4ccccc4)cc3)c2c1 noted as 80

Lab book: residual activity of c1ccc(-c2n[nH]c3c2oc2ccccc23)cc1 noted as 64

Lab book: residual activity of Oc1c2ccccc2c2c3c(cccc13)N=N2 noted as 30

Lab book: residual activity of Cc1cc(Nc2nc(-c3ccccc3)nc3ccccc23)n[nH]1 noted as 18

====

# STUDY_SYSTEM: Ribosomal protein S6 kinase alpha-6 (Homo sapiens)
# SETUP_CONDITIONS: at 1 µM
We use 90% as the dividing line for residual activity: on or above the line is TRUE, below is FALSE.

**Q:** I'd appreciate it if you could say whether CO[C@H]1C[C@@H]2CC[C@@H](C)[C@@](O)(O2)C(=O)C(=O)N2CCCC[C@H]2C(=O)O[C@H]([C@H](C)C[C@@H]2CC[C@@H](O)[C@H](OC)C2)CC(=O)[C@H](C)/C=C(\C)[C@@H](O)[C@@H](OC)C(=O)[C@H](C)C[C@H](C)/C=C/C=C/C=C/1C has residual activity at least equal to 90%.
**A:** TRUE

**Q:** I'd appreciate it if you could say whether O=C1c2ccccc2-[n+]2ccc3c([nH]c4ccccc43)c21 has residual activity at least equal to 90%.
**A:** TRUE

**Q:** I'd appreciate it if you could say whether O=C1NC(=O)/C(=C\c2ccc3nccnc3c2)S1 has residual activity at least equal to 90%.
**A:** TRUE

**Q:** I'd appreciate it if you could say whether O=C1Nc2cc(Br)ccc2/C1=C1/Nc2ccccc2/C1=N\O has residual activity at least equal to 90%.
**A:** FALSE

====

# STUDY_SYSTEM: SRSF protein kinase 2 (Homo sapiens)
# SETUP_CONDITIONS: at 10 µM
MEASUREMENT_TYPE: residual activity (%)
Report the figure in % without appending any unit label.

Lab book: residual activity of COc1cccc(-c2cc(=O)c3ccccc3o2)c1N noted as 88

Lab book: residual activity of Oc1n[nH]c2nnc(-c3c(-c4ccccc4)nn4ccccc34)cc12 noted as 98

Lab book: residual activity of N#C/C(=C(\N)Sc1ccc(N)cc1)c1ccccc1C(F)(F)F noted as 82

Lab book: residual activity of Cc1ccc(NC2=CC(=O)c3sc(C)nc3C2=O)cc1 noted as 87

Lab book: residual activity of Oc1c2ccccc2c2c3c(cccc13)N=N2 noted as 57

Lab book: residual activity of Cn1cnc2cc3c(Nc4cccc(Br)c4)ncnc3cc21 noted as 87

Lab book: residual activity of CO[C@H]1[C@@H](OC)C[C@H](C)[C@@H](OC)C2=CC(=O)C=C(NC(=O)/C(C)=C/C=C/[C@H](OC)[C@@H](OC(N)=O)/C(C)=C/[C@@H]1C)C2=O noted as 91

====

# STUDY_SYSTEM: Serine/threonine-protein kinase BRSK2 (Homo sapiens)
# Sequence (whole entry): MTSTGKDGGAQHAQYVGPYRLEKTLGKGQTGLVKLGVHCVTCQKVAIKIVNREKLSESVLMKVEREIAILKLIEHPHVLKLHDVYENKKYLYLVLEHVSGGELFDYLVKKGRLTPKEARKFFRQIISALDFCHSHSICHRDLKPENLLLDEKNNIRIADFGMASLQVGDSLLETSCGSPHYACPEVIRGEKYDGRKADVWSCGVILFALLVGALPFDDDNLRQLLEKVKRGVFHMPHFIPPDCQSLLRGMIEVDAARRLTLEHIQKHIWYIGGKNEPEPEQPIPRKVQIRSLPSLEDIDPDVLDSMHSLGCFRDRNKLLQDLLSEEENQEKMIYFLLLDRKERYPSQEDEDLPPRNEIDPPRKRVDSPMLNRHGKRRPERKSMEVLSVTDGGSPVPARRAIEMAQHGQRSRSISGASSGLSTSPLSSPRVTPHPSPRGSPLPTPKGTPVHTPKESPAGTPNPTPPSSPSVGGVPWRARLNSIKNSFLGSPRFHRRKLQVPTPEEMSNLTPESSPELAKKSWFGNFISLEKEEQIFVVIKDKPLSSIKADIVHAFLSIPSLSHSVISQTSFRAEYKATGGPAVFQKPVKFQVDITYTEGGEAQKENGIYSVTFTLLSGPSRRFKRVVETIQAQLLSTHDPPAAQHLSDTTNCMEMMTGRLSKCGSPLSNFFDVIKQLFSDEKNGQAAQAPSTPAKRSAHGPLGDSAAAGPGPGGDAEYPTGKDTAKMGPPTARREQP
# SETUP_CONDITIONS: at 10 µM
MEASUREMENT_TYPE: residual activity
State the value, then name its unit.

Serine/threonine-protein kinase BRSK2 (Homo sapiens) data for COc1cc2ncnc(N3CCN(C(=O)Nc4ccc(Oc5ccccc5)cc4)CC3)c2cc1OC ; its residual activity: 126%

Serine/threonine-protein kinase BRSK2 (Homo sapiens) data for CC(C)n1cnc2c(NCc3ccccc3)nc(NCCCO)nc21 ; its residual activity: 99%

Serine/threonine-protein kinase BRSK2 (Homo sapiens) data for COc1cc2ncnc(Nc3ccc(O)c(Br)c3)c2cc1OC ; its residual activity: 34%

Serine/threonine-protein kinase BRSK2 (Homo sapiens) data for C[C@@H](N)[C@H]1CC[C@H](C(=O)Nc2ccncc2)CC1 ; its residual activity: 82%

Serine/threonine-protein kinase BRSK2 (Homo sapiens) data for Cn1cc(/C=C2\C(=O)Nc3ccc(S(N)(=O)=O)cc32)c2ccccc21 ; its residual activity: 19%

Serine/threonine-protein kinase BRSK2 (Homo sapiens) data for CC#CC(=O)Nc1cc2c(Nc3ccc(F)c(Cl)c3)ncnc2cn1 ; its residual activity: 100%
